Target Of Assay: Rhodazain (Trypanosoma brucei rhodesiense)
Sequence (Q95PM0 entry or part of it): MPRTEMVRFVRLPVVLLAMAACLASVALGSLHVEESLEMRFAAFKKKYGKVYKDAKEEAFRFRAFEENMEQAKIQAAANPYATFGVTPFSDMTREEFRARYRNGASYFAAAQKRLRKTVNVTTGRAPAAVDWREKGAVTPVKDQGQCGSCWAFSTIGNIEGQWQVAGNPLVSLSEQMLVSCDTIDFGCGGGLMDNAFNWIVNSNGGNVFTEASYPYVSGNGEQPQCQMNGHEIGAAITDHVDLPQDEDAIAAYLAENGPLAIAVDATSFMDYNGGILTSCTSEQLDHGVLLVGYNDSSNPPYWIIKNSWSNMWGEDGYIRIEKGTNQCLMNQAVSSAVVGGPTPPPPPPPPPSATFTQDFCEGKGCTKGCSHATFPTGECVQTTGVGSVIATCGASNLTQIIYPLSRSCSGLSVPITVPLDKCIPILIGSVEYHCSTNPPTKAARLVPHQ
Protocol Description: Cysteine protease inhibition, progress curve method, rhodazain
Type: biochemical, Trypanosoma brucei rhodesiensi
Assay Setup: 10 uM Cbz-Leu-Arg-AMC, 100 mM Na acetate pH 5.5, 5 mM cysteine; read-out: Rhodazain Ki
Readout Type: Ki (nM)

{"Compound": "Cc1ccc2oc(C(=O)N[C@@H](CC(C)C)C(=O)NC3CCCN(S(=O)(=O)c4cccc[n+]4[O-])CC3=O)c(C)c2c1 (stereo partly drawn) [Example 201]", "Observed Result": 7.6}
{"Compound": "COc1cccc2oc(C(=O)N[C@@H](CC(C)C)C(=O)NC3CCCN(S(=O)(=O)c4cccc[n+]4[O-])CC3=O)c(C)c12 (stereo partly drawn) [Example 208]", "Observed Result": 4.2}
{"Compound": "COc1cccc2oc(C(=O)N[C@@H](CC(C)C)C(=O)NC3CCCN(S(=O)(=O)c4cccc[n+]4[O-])CC3=O)c(C)c12 (stereo partly drawn) [Example 209]", "Observed Result": 4.1}
